system: Saccharomyces cerevisiae; assay: protein stability index of tFT-peptide fusion (C-terminal peptide) (PSI (0-1 scale)); higher = more stable (slower turnover); settings: genetic background: wild type; temperature: 30 C

{"BIOPOLYMER_SEQUENCE": "KKKKKKRIREKR", "protein stability index": 0.721}
{"BIOPOLYMER_SEQUENCE": "TFPPSAPQSSCS", "protein stability index": 0.704}
{"BIOPOLYMER_SEQUENCE": "RLTYVGDYELYV", "protein stability index": 0.686}

* * *

tested on: Saccharomyces cerevisiae; experiment: protein stability index of tFT-peptide fusion (C-terminal peptide) (PSI (0-1 scale)); higher = more stable (slower turnover); conditions: genetic background: wild type; temperature: 30 C;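 also: PSI is a weighted mean of sequencing reads over stability bins, variants kept only with over 10 reads, mCherry proximal and sfGFP distal, peptide attached via GGGS linker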
A collection of sequences and their measured protein stability index

{"BIOPOLYMER_SEQUENCE": "DWGAGAASRADR", "SYSTEM": "Saccharomyces cerevisiae", "protein stability index": 0.708}
{"BIOPOLYMER_SEQUENCE": "KKKKKKKKNMKR", "SYSTEM": "Saccharomyces cerevisiae", "protein stability index": 0.683}
{"BIOPOLYMER_SEQUENCE": "PPPPTPLPPPDP", "SYSTEM": "Saccharomyces cerevisiae", "protein stability index": 0.68}
{"BIOPOLYMER_SEQUENCE": "LPPPLSSPSSLR", "SYSTEM": "Saccharomyces cerevisiae", "protein stability index": 0.715}
{"BIOPOLYMER_SEQUENCE": "GKRKKERGGGER", "SYSTEM": "Saccharomyces cerevisiae", "protein stability index": 0.711}
{"BIOPOLYMER_SEQUENCE": "VVEPEVCLPSMR", "SYSTEM": "Saccharomyces cerevisiae", "protein stability index": 0.694}
{"BIOPOLYMER_SEQUENCE": "PHSGVVVRCPSG", "SYSTEM": "Saccharomyces cerevisiae", "protein stability index": 0.704}
{"BIOPOLYMER_SEQUENCE": "LGPPLLDLASLR", "SYSTEM": "Saccharomyces cerevisiae", "protein stability index": 0.719}

These data points were gathered from the supplement of paper PMC10724198.
